- MEASUREMENT_TARGET: Butyrylcholinesterase (Rattus norvegicus, UniProt Q9JKC1)
- Sequence (Q9JKC1 whole entry): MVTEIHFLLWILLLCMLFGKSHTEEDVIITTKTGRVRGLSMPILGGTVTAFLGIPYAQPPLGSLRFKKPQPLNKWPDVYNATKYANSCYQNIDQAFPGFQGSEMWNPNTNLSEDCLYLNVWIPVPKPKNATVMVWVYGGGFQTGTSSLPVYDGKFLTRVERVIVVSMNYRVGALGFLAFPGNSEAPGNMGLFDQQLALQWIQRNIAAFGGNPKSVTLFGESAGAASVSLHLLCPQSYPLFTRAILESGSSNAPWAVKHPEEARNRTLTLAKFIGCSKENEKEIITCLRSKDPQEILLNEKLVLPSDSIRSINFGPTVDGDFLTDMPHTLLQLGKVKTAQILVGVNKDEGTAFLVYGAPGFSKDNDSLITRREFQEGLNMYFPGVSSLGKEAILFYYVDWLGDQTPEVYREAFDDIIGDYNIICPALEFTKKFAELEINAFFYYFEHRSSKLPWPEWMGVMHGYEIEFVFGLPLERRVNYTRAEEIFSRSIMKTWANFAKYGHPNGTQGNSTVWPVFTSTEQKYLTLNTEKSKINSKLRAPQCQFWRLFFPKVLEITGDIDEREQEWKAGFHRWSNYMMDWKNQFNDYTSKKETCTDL
- METHOD_NOTES: Inhibitory concentration against butyrylcholinesterase of rat serum
MEASURED_METRIC: IC50 (µM)
Give a bare numeral; the unit µM is implied.

input_smiles=CC1=CC2Cc3[nH]c(=O)ccc3[C@@]3(C1)[C@@H]2CCCN3C(=O)CCN(C)CCCCCCCCCCN(C)CCC(=O)N1CCC[C@@H]2C3C=C(C)C[C@]21c1ccc(=O)[nH]c1C3 result_value=54.3

Which IC50 reading was recorded for the compound CC1=CC2Cc3[nH]c(=O)ccc3[C@@]3(C1)[C@@H]2CCCN3C(=O)CN(C)CCCCCCCCN(C)CC(=O)N1CCC[C@@H]2C3C=C(C)C[C@]21c1ccc(=O)[nH]c1C3 ? 65.4

Item: CC1=CC2Cc3[nH]c(=O)ccc3[C@@]3(C1)[C@@H]2CCCN3C(=O)CCN(C)CCCCCCCCCCCCN(C)CCC(=O)N1CCC[C@@H]2C3C=C(C)C[C@]21c1ccc(=O)[nH]c1C3 88.4

Recorded values, source ChEMBL document CHEMBL1141877.
